Molecular target: UniProt Q86X55
Sequence (Q86X55 with tags, fused parts or gaps isoform Q86X55-1): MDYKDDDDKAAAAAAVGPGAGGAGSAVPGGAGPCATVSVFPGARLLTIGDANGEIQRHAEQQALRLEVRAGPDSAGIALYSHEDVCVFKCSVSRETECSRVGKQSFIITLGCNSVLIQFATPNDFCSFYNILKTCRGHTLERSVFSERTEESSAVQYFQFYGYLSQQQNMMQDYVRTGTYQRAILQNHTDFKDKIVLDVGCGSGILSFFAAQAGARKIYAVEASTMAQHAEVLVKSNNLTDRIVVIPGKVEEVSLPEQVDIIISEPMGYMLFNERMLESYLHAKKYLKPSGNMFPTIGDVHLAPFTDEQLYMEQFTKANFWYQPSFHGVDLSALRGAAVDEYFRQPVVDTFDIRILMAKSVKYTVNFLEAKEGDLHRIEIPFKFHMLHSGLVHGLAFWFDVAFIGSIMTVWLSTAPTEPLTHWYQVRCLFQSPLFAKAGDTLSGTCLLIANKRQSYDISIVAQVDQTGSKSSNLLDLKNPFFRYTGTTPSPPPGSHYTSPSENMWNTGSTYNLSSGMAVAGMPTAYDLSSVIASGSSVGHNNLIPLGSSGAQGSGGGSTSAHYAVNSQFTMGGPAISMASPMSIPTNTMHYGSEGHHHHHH
pIC50: −log10 of the molar value.
observable: pIC50

molecule	pIC50
CNCCN(C)Cc1cn(C2CCOC2)nc1-c1ccc(OC(C)C)cc1 (centres unmarked) [Compound 215]	6.00 to 7.00
CNCCN(C)Cc1cnn(C2CCOC2)c1-c1ccc(OC(C)C)cc1 (centres unmarked) [Compound 216]	6.00 to 7.00
Cc1cc(C#N)ccc1-c1n[nH]cc1CN(C)CCN [Compound 110]	5.00 to 5.52
CNCCN(C)Cc1c[nH]nc1-c1ccccc1Oc1ccccc1 [Compound 36]	< 5.00

Would you be so kind as to report pIC50 for each listed record?
1. CN(CCN)Cc1cnn(C2COC2)c1-c1ccc(F)cc1 [Compound 81]
2. CCNCCN(C)Cc1c[nH]nc1-c1ccc(F)cc1 [Compound 60]
3. CN(CCN)Cc1c[nH]nc1-c1ccc(Cl)cc1Cl [Compound 86]
4. CN(CCN)Cc1c[nH]nc1-c1ccc(C#N)cc1 [Compound 68]
5. CNCCN(C)Cc1c[nH]nc1-c1cccc(C#N)c1 [Compound 22]
6. CCN(CCNC)Cc1c[nH]nc1-c1ccc(F)cc1 [Compound 9]
7. CNCCN(C)Cc1cnn(C)c1-c1ccc(F)cc1 [Compound 10]

1: 5.52 to 6.00; 2: < 5.00; 3: 5.00 to 5.52; 4: 6.00 to 7.00; 5: 5.52 to 6.00; 6: 5.52 to 6.00; 7: 5.52 to 6.00

Would you be so kind as to report pIC50 for each listed record?
1. CN(CCN)Cc1c[nH]nc1-c1ccc(OCC(F)(F)F)cc1 [Compound 96]
2. CNCCN(C)Cc1cnn(C2CCCC2)c1-c1ccc(OC(C)C)cc1 [Compound 255]
3. CNCCN(C)Cc1c[nH]nc1-c1ccc(OC)cc1OC [Compound 55]
4. CC(C)Oc1ccc(-c2c[nH]nc2CN(C)CCN)cc1F [Compound 144]
5. CN(CCN)Cc1c[nH]nc1-c1ccc(C(C)(C)C)cc1 [Compound 74]

1. > 7.00
2. 5.52 to 6.00
3. 5.00 to 5.52
4. 5.00 to 5.52
5. 5.00 to 5.52

Would you be so kind as to report pIC50 for each listed record?
1. CC(C)Oc1ccc(-c2n[nH]cc2CN(C)CCN)cc1F [Compound 97]
2. CCN(CC)C(=O)c1ccc(-c2n[nH]cc2CN(C)CCN)cc1 [Compound 143]
3. CNCCN(C)Cc1cn(CC(=O)OC)nc1-c1ccc(OC(C)C)cc1 [Compound 248]
4. CC(C)Oc1ccc(-c2n[nH]cc2CN(C)CCN)cc1 [Compound 67]

6.00 to 7.00
5.00 to 5.52
5.00 to 5.52
6.00 to 7.00
